These data points were gathered from ChEMBL document CHEMBL6127124.

This listing pairs compounds with measured fraction unbound at 6 h, 2 µM.
# protocol.summary: Plasma protein binding in rat assessed as unbound fraction at 2 uM incubated for 6 hrs by equilibrium dialysis
# Type: ADME, cell-free
Could you respond with only the numeric value?

Field: example entries. Status: answers known.
molecule.smiles: COCCCOc1cc2c(nc1OC)-c1cc(=O)c(C(=O)O)cn1[C@H](C(C)C)C2
fraction unbound at 6 h, 2 µM: 0.46

molecule.smiles: COc1cc(OC(F)F)c2nc3c(n2c1)C[C@@H](C(C)(C)C)c1cc(C(=O)O)c(=O)[nH]c1-3
fraction unbound at 6 h, 2 µM: 0.06

Now look at this one.
Record request: fraction unbound at 6 h, 2 µM value, item CC(C)(C)[C@@H]1Cc2c(nc3c(C(F)(F)F)cc(C4CC4)cn23)-c2[nH]c(=O)c(C(=O)O)cc21 0.02
